assay: NCI Yeast Anticancer Drug Screen. Data for the mlh1 rad18 strain (AID 175)
test context: S. cerevisiae mlh1 rad18 strain growth inhibition; at 50.0 µM (retest, dose inferred, filed as 5.0); stronger effect = higher value
Procedure: Growth inhibition of yeast strains with defined genetic alterations is measured as a screen for potential anti-cancer activity. Selected strains with alterations in DNA damage repair or cell cycle control were exposed to compounds and growth inhibition was measured relative to vehicle treated controls. The strain used in this assay is mlh1 rad18
The panel holds about 79,000 compounds, 15% with a hit somewhere; the sample as a whole holds those more often.
Categorize each record by its growth inhibition using class A = under 60%, class B = from 60% up to 90%, class C = 90% and over

molecule	discrete label
O=C(c1ccccc1)N(c1ccccc1)c1ccc2ccccc2c1	class B

Class (by measured growth inhibition) for c1ccc(C2=NCCC(c3ccccc3)S2)cc1 (stereo not given)
class A

Class (by measured growth inhibition) for `Cc1ccnc2ccc3ccccc3c12`
class A

Class (by measured growth inhibition) for `O=C1c2c(Br)c(Br)c(Br)c(Br)c2C(=O)N1c1nccs1`
class B

Class (by measured growth inhibition) for `Cc1nc(N)sc1N=Nc1ccc(Cl)cc1Cl`
class C

Class (by measured growth inhibition) for `S=C(NCc1ccccc1)[S][Sb]([S]C(=S)NCc1ccccc1)[c]1ccccc1`
class B

Class (by measured growth inhibition) for N#CSCN1C(=O)C2CC=CCC2C1=O (stereo not given)
class C

Class (by measured growth inhibition) for `CCCCOS(=O)(=O)c1ccc(C)cc1`
class A

###

assay: NCI Yeast Anticancer Drug Screen. Data for the rad50 strain (AID 155);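 further: 0% = growth of vehicle-only cultures of the same strain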
test context: S. cerevisiae rad50 strain growth inhibition; at 50.0 µM; stronger effect = higher value
The panel holds about 79,000 compounds, 15% with a hit somewhere; the sample as a whole holds those more often.
Decide using growth inhibition: a value greater than or equal to 90% is satisfied, a smaller one is not satisfied.

Is it the case that `CC(C)(C)CC(C)(C)NCc1cc(Cl)cc(Cc2cc(Cl)ccc2O)c1O` has growth inhibition reaching or exceeding 90%?
not satisfied

###

Each item that follows carries a reported growth inhibition.
assay: NCI Yeast Anticancer Drug Screen. Data for the rad50 strain (AID 155);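 further: 0% = growth of vehicle-only cultures of the same strain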
test context: S. cerevisiae rad50 strain growth inhibition; at 50.0 µM; stronger effect = higher value
This is part of a sample that, as a whole, favours compounds with a hit. Of some 79,000 tested, about 15% had one in any assay.
// return numeric value only (unit: %, not printed)

compound	growth inhibition, %
O=[N+]([O-])c1ccc(C(Br)(Br)c2ccc([N+](=O)[O-])cc2)cc1	99.7
O=C1OC(OCC#CCOC2OC(=O)C(Cl)=C2Cl)C(Cl)=C1Cl (stereo unspecified)	99.4
CCCCC#CCOC(=O)c1cc([N+](=O)[O-])cc([N+](=O)[O-])c1	99.2
O=C1OC(c2cccc(Cl)c2)Sc2ccccc21 (stereo unspecified)	51.7
CC1/C(=N\O)CC(c2ccccc2)N(C)C1c1ccccc1 (stereo unspecified)	98.2

// lookup growth inhibition for `O=C(OCc1ccccc1)c1ccc(O)cc1`
96.8

// lookup growth inhibition for `CCOC(=O)c1cc(NC(=O)c2cc(NC(=O)c3cc(NC(=O)c4c(-c5ccccc5)noc4C)cn3C)cn2C)cn1C`
50.3

// lookup growth inhibition for `CN(C)C(=O)c1cc(Br)cc(-c2ccccc2)c1O`
55.1

// lookup growth inhibition for `S=c1[nH]nc(Nc2ccccc2Cl)s1`
57.5

// lookup growth inhibition for `OCCc1ccc(-n2cnc3c(Nc4ccc(Cl)cc4)ncnc32)cc1`
47.2

// lookup growth inhibition for `Oc1ccc(Cl)cc1Cc1cc(Cl)cc(Cc2cc(Cl)ccc2O)c1O`
96

// lookup growth inhibition for COc1ccc(CC2c3cc4c(cc3CCN2C)OCO4)c(C=O)c1OC (stereo unspecified)
82

###

assay: NCI Yeast Anticancer Drug Screen. Data for the sgs1 mgt1 strain (AID 161);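 further: 0% = growth of cultures given vehicle only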
test context: S. cerevisiae sgs1 mgt1 strain, at 50.0 µM (retest, dose inferred, filed as 5.0), stronger effect = higher value
Compounds without any hit were thinned out: in the full panel of roughly 79,000, 15% have a hit.
Each item that follows carries a reported growth inhibition.
// return numeric value only (unit: %, not printed)

compound	growth inhibition [%]
C=C(C)COc1cc(NC(=S)OC(C)C)ccc1Cl	88
O=C1C=CC(=O)C1=Cc1ccc(Cl)c(Cl)c1	98
COc1cccc2c1C(=O)c1c(O)c3c(c(O)c1C2=O)CC(O)(C(C)=O)CC3OC1OC(COC(C)=O)C(OC(C)=O)C(OC(C)=O)C1OC(C)=O (stereo not drawn)	33
NC(Cc1ccccc1)c1ccc2cccc3c2c1CC3 (stereo not drawn)	25
CCSC(=O)/C=C1\CN(C(=O)OC(C)(C)C)C1C(=O)OC(C)(C)C (stereo not drawn)	-2

As a next step, examine the compound that follows.
// lookup growth inhibition for CC1CCC(C(O)(C(=O)O)C2CCC(C)CC2)CC1 (stereo not drawn)
61

###

assay: NCI Yeast Anticancer Drug Screen. Data for the mec2-1 strain (AID 157)
test context: S. cerevisiae mec2-1 strain, at 5.0 µM (retest, dose inferred, filed as 0.5)
About 79,000 compounds went through this panel and 15% of them were active in at least one assay; those are over-represented in the sample as a whole. Activity calls are given as the source filed them. No stated cut-off is given here; in the data, active means growth inhibition above about 70%; inactive means the rest. *1 amine or outer side, *2 acyl side, *3 side chain or, on linkers, in order; H or OH if unused. Where a SMILES comes first, the peptide text is derived from it. Bridges are numbered along the chain shown (N, C = ends). [ ]: non-standard residue; d: D form. The star is where a group is joined. ξ: configuration not given here. ξOrn(4,5-diOH) = O=C(C(CC(O)C(O)N[*:3])N[*:1])[*:2]; ξhTyr(βξ-OH,γξ-OH) = NC(C(=O)O)C(O)C(O)c1ccc(O)cc1; ξPro(3ξ-OH,4ξ-Me) = CC1CNC(C(=O)O)C1O; X1 = CCCCC/C=C/C/C=C\CCCCCCCC(=O)*; Hyp = O=C(O)[CH]1C[CH](O)CN1
Your reply should match one of these outcome classes. 1.0 = active, 0.0 = inactive

// below: answered molecules
molecule	discrete label
Cc1ccc(Cl)cc1NN	0.0
Nc1nc(-c2ccccn2)cc2cc(Cl)ccc12	1.0
O=Nc1ccc(O)c(/C=N/O)c1	0.0
N#CC(Br)(C#N)Cc1ccccc1	0.0
O=C(Oc1ccccc1)C1CCCCC1C(=O)Oc1ccccc1 (configuration not stated)	0.0
CCCCC/C=C/C/C=C\CCCCCCCC(=O)NC1CC(O)C(O)NC(=O)C2C(O)C(C)CN2C(=O)C(C(C)O)NC(=O)C(C(O)C(O)c2ccc(O)cc2)NC(=O)C2CC(O)CN2C(=O)C(C(C)O)NC1=O (stereo not drawn) (X1-[ξOrn(4,5-diOH)]T[Hyp][ξhTyr(βξ-OH,γξ-OH)]T[ξPro(3ξ-OH,4ξ-Me)]; lactam 1-C; configuration not given here)	0.0

For the next question, use this molecule.
What did the test return for `O=C(O)Cc1ccc2ccccc2c1-c1ccccc1` ?
0.0

###

assay: NCI Yeast Anticancer Drug Screen. Data for the sgs1 mgt1 strain (AID 161);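 further: 0% = growth of cultures given vehicle only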
test context: S. cerevisiae sgs1 mgt1 strain, at 5.0 µM (retest, dose inferred, filed as 0.5), stronger effect = higher value
Description: Growth inhibition of yeast strains with defined genetic alterations is measured as a screen for potential anti-cancer activity. Selected strains with alterations in DNA damage repair or cell cycle control were exposed to compounds and growth inhibition was measured relative to vehicle treated controls. The strain used in this assay is sgs1 mgt1
Compounds without any hit were thinned out: in the full panel of roughly 79,000, 15% have a hit. Calls of active or inactive are those of the source. Rule as the data show it: active = growth inhibition above about 70%; inactive = the rest.
property label: growth inhibition

Record excerpt, results attached:
compound	recorded measurement
O=C(C(/C=N/C(=S)NCc1ccccc1)=C(/O)c1ccccc1)c1ccccc1	3% (inactive)
O=c1[nH]c2c([N+](=O)[O-])cc(Cl)cc2nc1/C=C(\O)c1cccc2ccccc12	-10% (inactive)
S=c1sc2ccccc2n1C=Nc1ccccc1	-1% (inactive)
NC(=S)NNc1c([N+](=O)[O-])cnn(-c2ccccc2)c1=O	-27% (inactive)
CS(=O)(=O)OCCN(CCOS(C)(=O)=O)c1ccc(C=Nc2ccc3ccccc3c2)cc1	6% (inactive)

// lookup growth inhibition for `CN(C)C=Nc1c2ccccc2nc2ccccc12`
11% (inactive)

// lookup growth inhibition for O=C(NCCCCCN1CCC2(CCCCC2)CC1)C(c1ccccc1)C1CCCCC1 (stereo not drawn)
0% (inactive)

// lookup growth inhibition for `CCCCCCCCCCCCOCC[N+](CCO)(CCO)Cc1ccccc1`
99% (active)

// lookup growth inhibition for `Cc1cccnc1NC(=S)Nc1ccccc1Cl`
28% (inactive)

// lookup growth inhibition for `C=C1N(S(=O)(=O)c2ccc(C)cc2)C(=O)OCC12CCCC2`
-21% (inactive)

###

assay: NCI Yeast Anticancer Drug Screen. Data for the mlh1 rad18 strain (AID 175)
test context: S. cerevisiae mlh1 rad18 strain growth inhibition; at 5.0 µM (retest, dose inferred, filed as 0.5)
The panel holds about 79,000 compounds, 15% with a hit somewhere; the sample as a whole holds those more often. Active and inactive are the calls of the source. Cut-off read from the data, not from the text of the source: active = growth inhibition above about 70%; inactive = the rest.
Your reply should match one of these outcome classes. active, inactive

// below: answered compounds
compound	discrete label
COc1ccccc1CN1CCCN(Cc2ccccc2OC)C1c1cc(Cl)cc(Cl)c1O	inactive
CC(C)c1ccc(/C=C(\NC(=O)c2ccccc2)c2nc3ccccc3[nH]2)cc1	inactive
C/C(=N\NC(=S)N1CCN(c2ccccc2)CC1)c1nccs1	inactive
Oc1cc(Br)cc2cc(Cl)cnc12	active

What did the test return for `COc1ncnc2nc(SC)[nH]c12` ?
inactive

What did the test return for `CCCN(Cc1ccccc1)S(=O)(=O)c1ccc(C)cc1` ?
inactive

What did the test return for `CN1C(=O)[C@@H]2N(N(C)C1=O)[C@@]1(Br)C(=O)N(C)C(=O)[C@@]21Br` ?
inactive

What did the test return for COC(=O)C1(Cc2ccccc2C)Cc2ccc(C)cc2C1=O (centres undefined) ?
inactive

What did the test return for `Cc1cc(-c2ccc(N=Nc3cc(S(=O)(=O)O)c4ccccc4c3N)c(C)c2)ccc1N=Nc1cc(S(=O)(=O)O)c2ccccc2c1N` ?
inactive

What did the test return for CC(=O)c1c2c(cc3c1CC1(Cc4cc5c(cc4C1)C(=O)CCC5)C3)CCCC2 (centres undefined) ?
inactive

What did the test return for `CC(C)(C)c1cc(Cl)c(O)c(Cc2cc(C(C)(C)C)cc(Cl)c2O)c1` ?
inactive

What did the test return for `Cc1c2ncccc2cc2oc3ccccc3c(=O)c12` ?
inactive

What did the test return for CC(=O)OC1=CC(n2cc(F)c(=O)[nH]c2=O)OC(C)C1=O (centres undefined) ?
inactive

What did the test return for COc1cc2c(cc1OC)C(C)N(C)c1c-2c(OC(C)=O)cc2cc(OC)c(OC)cc12 (centres undefined) ?
inactive
